System: SK-OV-3
Experiment: Cytotoxicity against sk-ov-3 cancer cell line
Format: functional, cell-based
Conditions: Homo sapiens
READOUT TYPE: IC50 (µg/mL)
Quick note: give the figure in µg/mL, leave out the unit.

Problem: Lab request: please report IC50 under test system SK-OV-3 for `C=C1CC[C@H]2C(C)(C)CCC[C@]2(C)[C@H]1CC=O`
Solution: 3.1

Problem: Form field - read-out: IC50; system: SK-OV-3; submitted item: `CC1=CC[C@H]2C(C)(C)CCC[C@]2(C)[C@H]1C/C=C1\CCOC1=O`
Solution: 6

Problem: Give IC50 (SK-OV-3) of the following molecule: `C=C1[C@@H](O)C[C@H]2C(C)(C)CCC[C@]2(C)[C@H]1C/C=C1\CCOC1=O`
Solution: 8.7

Problem: What value of IC50 on SK-OV-3 does `C=C1C(=O)C[C@H]2C(C)(C)CCC[C@]2(C)[C@H]1C/C=C1\CCOC1=O` have?
Solution: 0.9

Problem: What measured IC50 is associated with `C=C1CC[C@H]2C(C)(C)CCC[C@]2(C)[C@H]1C/C=C1\CCOC1=O` on SK-OV-3?
Solution: 2

###

Tested on: SK-OV-3
Experiment: Cytotoxicity against sk-ov-3 cancer cell line
Format: functional, cell-based
Details: Homo sapiens
Task for the reader: assign each of the following compounds its reported IC50.
Response body: numeric value in µg/mL, unit text excluded.

Problem: Query (compound): `C=C1[C@H](O)C[C@H]2C(C)(C)CCC[C@]2(C)[C@H]1C/C=C1/CCOC1=O` ; field requested: IC50
Solution: 10.1

Problem: What value of IC50 has been reported for the following compound? CC(=O)O[C@H]1C(=O)[C@@]2(C)[C@H]([C@H](OC(=O)c3ccccc3)[C@]3(O)C[C@H](OC(=O)[C@H](O)[C@@H](NC(=O)c4ccccc4)c4ccccc4)C(C)=C1C3(C)C)[C@]1(OC(C)=O)CO[C@@H]1C[C@@H]2O [PACLITAXEL]
Solution: 8.7

Problem: For the compound shown here, `C=C1[C@@H](O)C[C@H]2C(C)(C)CCC[C@]2(C)[C@H]1C/C=C1/CCOC1=O` , give the reported IC50.
Solution: 5.3

Problem: Request the reported IC50 associated with `C=C1C(=O)C[C@H]2C(C)(C)CCC[C@]2(C)[C@H]1C/C=C1/CCOC1=O`
Solution: 0.8

Problem: // returns reported IC50 for input `C=C1[C@H](O)C[C@H]2C(C)(C)CCC[C@]2(C)[C@H]1C/C=C1\CCOC1=O`
Solution: 12.4

Problem: Name the recorded IC50 for `CC1=CC[C@H]2C(C)(C)CCC[C@]2(C)[C@H]1CC=O` .
Solution: 23.5

Problem: Requested field: IC50. Item: `C=C1CC[C@H]2C(C)(C)CCC[C@]2(C)[C@H]1C/C=C1/CCOC1=O`
Solution: 4.3

###

Provide the reported IC50 of each item.
Tested on: U-87 MG
Experiment: Cytotoxicity against U87 cancer cell line
Format: functional, cell-based, U-87MG ATCC
Details: Homo sapiens

Problem: What value of IC50 on U-87 MG does `C=C1C(=O)C[C@H]2C(C)(C)CCC[C@]2(C)[C@H]1C/C=C1/CCOC1=O` have?
Solution: 1.43 µg/mL

Problem: Identify the measured IC50 of `C=C1[C@H](O)C[C@H]2C(C)(C)CCC[C@]2(C)[C@H]1C/C=C1/CCOC1=O` for U-87 MG.
Solution: > 50 µg/mL

Problem: Return IC50 measured with U-87 MG given this compound: `CC1=CC[C@H]2C(C)(C)CCC[C@]2(C)[C@H]1CC=O`
Solution: 11.7 µg/mL

Problem: What IC50 appears in the records for this compound with U-87 MG? `CC1=CC[C@H]2C(C)(C)CCC[C@]2(C)[C@H]1C/C=C1\CCOC1=O`
Solution: 9.2 µg/mL
